Tested on: COLO 205 colon
Experiment: NCI-60 one-dose screen, 48 h
Conditions: 10 µM unless noted
Compounds without any hit were thinned out: in the full panel of roughly 83,000, 20% have a hit. The source made the active and inactive calls. The calls were made as follows: active = growth percent below 10; inactive = the rest.
Valid outcomes are listed here; reply with one: class 1 for active, class 0 for inactive

These recorded examples may help you get a feel for the data.
{"columns": ["COMPOUND", "ASSIGNED CATEGORY"],
 "data": [
  ["CN1CCN(Cc2ccc(NC(=O)c3[nH]ncc3Nc3ccnc4ccnn34)cc2)CC1", "class 0"],
  ["Clc1ccc(CCC(Cn2ccnc2)Sc2c(Cl)cccc2Cl)cc1 (centres undefined)", "class 0"],
  ["CCCCCCCC/C=C/CCCCCCCC1=NC(C)(C)CN1CCO", "class 1"],
  ["COC(=O)c1ccc2c(c1)nc(-c1ccc(O)c(OC)c1)n2-c1cc(C(C)(C)C)[nH]n1", "class 0"]
]}

Which outcome was entered for the compound "c1csc([C@@H]2C[C@@H]3Cc4ccc5ccccc5c4N2O3)c1" in this test?
class 0

Now consider "NC(=O)N/N=C/c1ccc(Br)o1" .
class 0

Now consider "CCCOc1ccc2c(c1)CC[C@@H]1[C@@H]2CC[C@@]2(C)[C@H]1CC[C@]2(C)O" .
class 0

Now consider "S=C(c1ccccc1)N1CCN(c2cccc(Cl)c2)CC1" .
class 0

Now consider CC[C@]1(O)CC2CN(CCc3c([nH]c4ccccc34)[C@@](C(=O)OC)(c3cc4c(cc3OC)N(C)[C@H]3[C@@](O)(C(=O)OC)[C@H](OC(C)=O)[C@]5(CC)C=CCN6CC[C@]43[C@@H]65)C2)C1 (some centres undefined) .
class 1

Now consider "CCC(C)(C)C(=O)O[C@H]1C[C@@H](C)C=C2C=C[C@H](C)[C@H](CC[C@@H]3C[C@@H](O)CC(=O)O3)[C@H]21" .
class 0

Now consider "Cc1nn(-c2ccccc2)c2c1oc(=O)c1cc(Cl)ccc12" .
class 0

Now consider CC12CCC3C(CCC4CC(=O)/C(=C\O)CC43C)C1CCC(=O)O2 (centres undefined) .
class 0

Now consider "CCOc1cc(C(C)(C)C)ccc1C1=N[C@H](c2ccc(Cl)cc2)[C@H](c2ccc(Cl)cc2)N1C(=O)N1CCN(CC#Cc2cccc3c2CN([C@@H]2CCC(=O)NC2=O)C3=O)CC1" .
class 1

Now consider "COc1cc(/C=C2\COc3ccc(O)c(O)c3C2=O)cc(OC)c1" .
class 0

Now consider "O=C(Nc1ccc(Cl)cc1)Nc1ccc(Nc2nncc3ccccc23)cc1" .
class 0

Now consider "C/C(=C\CCc1ccoc1)CC/C=C(\C)CCCN1CCC(CO)CC1" .
class 1

Now consider COc1ccc(C2=NN(C(=O)c3cc(OC)c(OC)c(OC)c3)C(c3ccc(C#N)cc3)C2)cc1OC (centres undefined) .
class 1

Now consider "OCCOc1c(Cl)cc(Cl)cc1Cl" .
class 0

Now consider "CCN1C(=O)c2ccc3c4c(ccc(c24)C1=O)C(=O)N(CCCNCc1ccccc1OC)C3=O" .
class 1

Now consider "O=C(N1CCC(CN=c2cc3n(-c4ccc(Cl)cc4)c4ccccc4nc-3cc2Nc2ccc(Cl)cc2)CC1)N1CC1" .
class 1

Now consider "Cc1cc(NCCCNc2ccnc3cc(Cl)ccc23)nc(N2CCN(C)CC2)n1" .
class 0

Now consider COc1cc2c(C#N)n3c(c2cc1OC)C(=O)C(c1ccccc1)Oc1ccccc1-3 (centres undefined) .
class 0
